Data origin, for the record: paper doi:10.1101/2021.06.24.449719v1

# Tested on: BuGH3MLG
# method summary: PAHBAH reducing sugar assay, […] nm
# Type: biochemical, Bacteroides uniformis
# particulars: 30 min hydrolysis
Threshold rule: Km greater than or equal to 40 µM is satisfied; below that, not satisfied.

Request: Quick check: does OC[C@H]1O[C@@H](O[C@@H]2[C@@H](O)[C@H](O[C@H]3[C@H](O)[C@@H](CO)OC(O)[C@@H]3O)O[C@H](CO)[C@H]2O)[C@H](O)[C@@H](O)[C@@H]1O (stereo partly drawn) have Km greater than or equal to 40 µM?
Result: not satisfied

Request: Quick check: does OC[C@H]1O[C@@H](O[C@H]2[C@H](O)[C@@H](O)[C@H](O[C@H]3[C@H](O)[C@@H](O)[C@H](O[C@H]4[C@H](O)[C@@H](O)C(O)O[C@@H]4CO)O[C@@H]3CO)O[C@@H]2CO)[C@H](O)[C@@H](O)[C@@H]1O (stereo partly drawn) have Km greater than or equal to 40 µM?
Result: satisfied

Request: Quick check: does OC[C@H]1O[C@@H](O[C@H]2[C@H](O)[C@@H](O)[C@H](O[C@H]3[C@H](O)[C@@H](O)[C@H](O[C@H]4[C@H](O)[C@@H](CO)OC(O)[C@@H]4O)O[C@@H]3CO)O[C@@H]2CO)[C@H](O)[C@@H](O)[C@@H]1O (stereo partly drawn) have Km greater than or equal to 40 µM?
Result: not satisfied

Request: Quick check: does OC[C@H]1O[C@@H](OC[C@H]2OC(O)[C@H](O)[C@@H](O)[C@@H]2O)[C@H](O)[C@@H](O)[C@@H]1O (stereo partly drawn) have Km greater than or equal to 40 µM?
Result: satisfied

Request: Quick check: does OC[C@H]1O[C@@H](O[C@@H]2[C@@H](O)[C@H](O[C@@H]3[C@@H](O)[C@H](O[C@H]4[C@H](O)[C@@H](CO)OC(O)[C@@H]4O)O[C@H](CO)[C@H]3O)O[C@H](CO)[C@H]2O)[C@H](O)[C@@H](O)[C@@H]1O (stereo partly drawn) have Km greater than or equal to 40 µM?
Result: not satisfied

Request: Quick check: does OC[C@H]1O[C@@H](O[C@H]2[C@H](O)[C@@H](O)[C@H](O[C@H]3[C@H](O)[C@@H](CO)OC(O)[C@@H]3O)O[C@@H]2CO)[C@H](O)[C@@H](O)[C@@H]1O (stereo partly drawn) have Km greater than or equal to 40 µM?
Result: satisfied

Request: Quick check: does OC[C@H]1O[C@@H](O[C@H]2[C@H](O)[C@@H](CO)OC(O)[C@@H]2O)[C@H](O)[C@@H](O)[C@@H]1O (stereo partly drawn) have Km greater than or equal to 40 µM?
Result: not satisfied

Request: Quick check: does OC[C@H]1O[C@@H](O[C@H]2[C@H](O)[C@@H](O)[C@H](O[C@H]3[C@H](O)[C@@H](O)C(O)O[C@@H]3CO)O[C@@H]2CO)[C@H](O)[C@@H](O)[C@@H]1O (stereo partly drawn) have Km greater than or equal to 40 µM?
Result: not satisfied

Request: Quick check: does OC[C@H]1O[C@@H](O[C@H]2[C@H](O)[C@@H](O)C(O)O[C@@H]2CO)[C@H](O)[C@@H](O)[C@@H]1O (stereo partly drawn) have Km greater than or equal to 40 µM?
Result: not satisfied
